assayProcedure: melting temperature; melt of duplexes
runParameters: sodium 0.0675 M; strand 1 µM
Rule for this label: Criterion met means Tm is less than 50 °C; Criterion not met means Tm is at least 50 °C.

{"substance": "CGACGTGCACAATGTGCTG+CAGCACATTGTGCACGTCG (((((((((((((((((((+)))))))))))))))))))", "category": "Criterion not met"}
{"substance": "CGACGTGCTCCATGTGCTG+CAGCACATACCGCACGTCG ((((((((...((((((((+))))))))...))))))))", "category": "Criterion met"}
{"substance": "CGACGTGCTCCATGTGCTG+CAGCACATATCGCACGTCG ((((((((...((((((((+))))))))...))))))))", "category": "Criterion met"}
{"substance": "CGACGTGCCGAATGTGCTG+CAGCACATTTGGCACGTCG (((((((((.(((((((((+))))))))).)))))))))", "category": "Criterion not met"}
{"substance": "CGACGTGCGGCATGTGCTG+CAGCACATTTCGCACGTCG (((((((((..((((((((+))))))))..)))))))))", "category": "Criterion not met"}
{"substance": "CGACGTGCGAAATGTGCTG+CAGCACATCGCGCACGTCG (((((((((..((((((((+))))))))..)))))))))", "category": "Criterion not met"}
{"substance": "CGACGTGCACTATGTGCTG+CAGCACATGAAGCACGTCG ((((((((...((((((((+))))))))...))))))))", "category": "Criterion met"}
{"substance": "CGACGTGCCAAATGTGCTG+CAGCACATGTGGCACGTCG ((((((((((.((((((((+)))))))).))))))))))", "category": "Criterion not met"}
{"substance": "CGACGTGCCAGATGTGCTG+CAGCACATCCCGCACGTCG ((((((((..(((((((((+)))))))))..))))))))", "category": "Criterion not met"}
{"substance": "CGACGTGCACTATGTGCTG+CAGCACATTACGCACGTCG ((((((((...((((((((+))))))))...))))))))", "category": "Criterion met"}
{"substance": "CGACGTGCACCATGTGCTG+CAGCACATCCGGCACGTCG ((((((((...((((((((+))))))))...))))))))", "category": "Criterion met"}
{"substance": "CGACGTGCACGATGTGCTG+CAGCACATCTGGCACGTCG ((((((((..(((((((((+)))))))))..))))))))", "category": "Criterion not met"}
{"substance": "CGACGTGCCCAATGTGCTG+CAGCACATGCGGCACGTCG (((((((((..((((((((+))))))))..)))))))))", "category": "Criterion not met"}
{"substance": "CGACGTGCTAGATGTGCTG+CAGCACATCAAGCACGTCG (((((((((.(((((((((+))))))))).)))))))))", "category": "Criterion not met"}
{"substance": "CGACGTGCGTGATGTGCTG+CAGCACATATAGCACGTCG ((((((((...((((((((+))))))))...))))))))", "category": "Criterion not met"}
{"substance": "CGACGTGCCATATGTGCTG+CAGCACATATAGCACGTCG ((((((((.((((((((((+)))))))))).))))))))", "category": "Criterion not met"}
{"substance": "CGACGTGCAGGATGTGCTG+CAGCACATTCCGCACGTCG ((((((((.(.((((((((+)))))))).).))))))))", "category": "Criterion not met"}
{"substance": "CGACGTGCCCCATGTGCTG+CAGCACATGTGGCACGTCG (((((((((.(((((((((+))))))))).)))))))))", "category": "Criterion not met"}
